# Substrate: O=S(O)(O)=S
# assay-name: purified protein
# Assay type: biochemical, Allochromatium vinosum
# study-conditions: 1 mM potassium ferricyanide as electron acceptor, 100 mM ammonium acetate pH 4.25, 24 °C
Items are presented alongside their recorded kcat.
I only need the number, in s⁻¹, no unit after it.

Here is how some proteins turned out for kcat.
>>> result("TsdA (thiosulfate dehydrogenase) (Allochromatium vinosum DSM 180; R119A) (protein, native signal peptide (removed on export), C-terminal strep(II) tag kept; E. coli Lemo56(DE3) with pEC86; two c-type hemes; 28,228 Da by ESI-MS; 234 residues modeled) EEPPTVALTVPAAALLPDGALGESIVRGRRYLSDTPAQLPDFVGNGLACRHCHPGRDGEVGTEANAAPFVGVVGRFPQYSARHGRLITLEQAIGDCFERSLNGRALALDHPALIDMLAYMSWLSQGVPVGAVVAGHGIPTLTLEREPDGVHGEALYQARCLACHGADGSGTLDADGRYLFPPLWGPRSFNTGAGMNRQATAAGFIKHKMPLGADDSLSDEEAWDVAGFVLTHPRPLFQEPTGD")
640
>>> result("TsdA (thiosulfate dehydrogenase) (Allochromatium vinosum DSM 180; R224A) (protein, native signal peptide (removed on export), C-terminal strep(II) tag kept; E. coli Lemo56(DE3) with pEC86; two c-type hemes; 28,228 Da by ESI-MS; 234 residues modeled) EEPPTVALTVPAAALLPDGALGESIVRGRRYLSDTPAQLPDFVGNGLACRHCHPGRDGEVGTEANAAPFVGVVGRFPQYSARHGRLITLEQRIGDCFERSLNGRALALDHPALIDMLAYMSWLSQGVPVGAVVAGHGIPTLTLEREPDGVHGEALYQARCLACHGADGSGTLDADGRYLFPPLWGPRSFNTGAGMNAQATAAGFIKHKMPLGADDSLSDEEAWDVAGFVLTHPRPLFQEPTGD")
3670
>>> result("TsdA (thiosulfate dehydrogenase) (Allochromatium vinosum DSM 180; R109A) (protein, native signal peptide (removed on export), C-terminal strep(II) tag kept; E. coli Lemo56(DE3) with pEC86; two c-type hemes; 28,228 Da by ESI-MS; 234 residues modeled) EEPPTVALTVPAAALLPDGALGESIVRGRRYLSDTPAQLPDFVGNGLACRHCHPGRDGEVGTEANAAPFVGVVGRFPQYSAAHGRLITLEQRIGDCFERSLNGRALALDHPALIDMLAYMSWLSQGVPVGAVVAGHGIPTLTLEREPDGVHGEALYQARCLACHGADGSGTLDADGRYLFPPLWGPRSFNTGAGMNRQATAAGFIKHKMPLGADDSLSDEEAWDVAGFVLTHPRPLFQEPTGD")
3210
>>> result("TsdA (thiosulfate dehydrogenase) (Allochromatium vinosum DSM 180) (protein, native signal peptide (removed on export), C-terminal strep(II) tag kept; E. coli Lemo56(DE3) with pEC86; two c-type hemes; 28,228 Da by ESI-MS; 234 residues modeled) EEPPTVALTVPAAALLPDGALGESIVRGRRYLSDTPAQLPDFVGNGLACRHCHPGRDGEVGTEANAAPFVGVVGRFPQYSARHGRLITLEQRIGDCFERSLNGRALALDHPALIDMLAYMSWLSQGVPVGAVVAGHGIPTLTLEREPDGVHGEALYQARCLACHGADGSGTLDADGRYLFPPLWGPRSFNTGAGMNRQATAAGFIKHKMPLGADDSLSDEEAWDVAGFVLTHPRPLFQEPTGD")
4280

Here's the next entry for you.
Would you kindly share the measured kcat for TsdA (thiosulfate dehydrogenase) (Allochromatium vinosum DSM 180; S127A) (protein, native signal peptide (removed on export), C-terminal strep(II) tag kept; E. coli Lemo56(DE3) with pEC86; two c-type hemes; 28,228 Da by ESI-MS; 234 residues modeled) EEPPTVALTVPAAALLPDGALGESIVRGRRYLSDTPAQLPDFVGNGLACRHCHPGRDGEVGTEANAAPFVGVVGRFPQYSARHGRLITLEQRIGDCFERALNGRALALDHPALIDMLAYMSWLSQGVPVGAVVAGHGIPTLTLEREPDGVHGEALYQARCLACHGADGSGTLDADGRYLFPPLWGPRSFNTGAGMNRQATAAGFIKHKMPLGADDSLSDEEAWDVAGFVLTHPRPLFQEPTGD ?
3060
